Target chain: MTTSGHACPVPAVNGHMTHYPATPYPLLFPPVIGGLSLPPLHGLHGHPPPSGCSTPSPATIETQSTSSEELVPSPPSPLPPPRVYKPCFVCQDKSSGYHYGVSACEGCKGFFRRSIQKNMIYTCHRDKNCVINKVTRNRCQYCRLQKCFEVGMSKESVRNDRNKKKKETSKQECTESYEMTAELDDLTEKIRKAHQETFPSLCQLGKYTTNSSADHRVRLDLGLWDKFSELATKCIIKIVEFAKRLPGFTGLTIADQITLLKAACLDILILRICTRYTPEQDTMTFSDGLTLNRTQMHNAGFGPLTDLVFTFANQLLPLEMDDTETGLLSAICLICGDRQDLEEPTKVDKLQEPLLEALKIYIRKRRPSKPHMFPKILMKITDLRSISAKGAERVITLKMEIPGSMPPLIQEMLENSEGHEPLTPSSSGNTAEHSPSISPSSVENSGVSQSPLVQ
pKd: −log10 of the molar value.
QUANTITY: pKd

Example results:
sample_smiles=CC1(C)CC=C(c2ccc(C(F)(F)F)cc2)c2cc(C#Cc3ccc(C(=O)O)cc3)ccc21 quantity=pKd experimental_value=7.54
sample_smiles=Cc1ccccc1C1=CCC(C)(C)c2ccc(C#Cc3ccc(C(=O)O)cc3)cc21 quantity=pKd experimental_value=7.54
sample_smiles=COc1ccc(C2=CCC(C)(C)c3ccc(C#Cc4ccc(C(=O)O)cc4)cc32)cc1 quantity=pKd experimental_value=7.80
sample_smiles=CC1(C)CC=C(c2ccc(C#N)cc2)c2cc(C#Cc3ccc(C(=O)O)cc3)ccc21 quantity=pKd experimental_value=7.85
sample_smiles=CC(C)c1ccc(C2=CCC(C)(C)c3ccc(C#Cc4ccc(C(=O)O)cc4)cc32)cc1 quantity=pKd experimental_value=7.96
sample_smiles=Cc1cc(C)cc(C2=CCC(C)(C)c3ccc(C#Cc4ccc(C(=O)O)cc4)cc32)c1 quantity=pKd experimental_value=6.56
sample_smiles=Cc1ccc(C2=CCC(C)(C)c3ccc(C#Cc4ccc(C(=O)O)cc4)cc32)cc1 quantity=pKd experimental_value=8.15
sample_smiles=CC(C)(C)c1ccc(C2=CCC(C)(C)c3ccc(C#Cc4ccc(C(=O)O)cc4)cc32)cc1 quantity=pKd experimental_value=7.68

I. CC1(C)CC=C(c2ccc(Cl)cc2)c2cc(C#Cc3ccc(C(=O)O)cc3)ccc21
II. CC1(C)CC=C(c2cccc(O)c2)c2cc(C#Cc3ccc(C(=O)O)cc3)ccc21
Between the entries labeled I and II , whose measured pKd is lower? Pick one and reply with its label.
II
(II: 6.79, I: 7.74)
